# measurement_notes: activity coefficient (dimensionless); of the first substance listed, at infinite dilution; xn = mol fraction of the nth substance listed
# applied_conditions: 323.15 K; Liquid; Chromatography; x1 = 0

compound | activity coefficient
c1ccncc1 [pyridine] + CCCOC[n+]1ccc(N(C)C)cc1.O=S(=O)([N-]S(=O)(=O)C(F)(F)F)C(F)(F)F | 0.43
CCC(C)=O [butanone] + CCCOC[n+]1ccn(C)c1.N#C[N-]C#N | 1.27
CC(C)OC(C)C [diisopropyl ether] + CCCCCCCCn1cc[n+](COCCC)c1C.O=S(=O)([N-]S(=O)(=O)C(F)(F)F)C(F)(F)F | 1.95
c1ccncc1 [pyridine] + CN(C)c1cc[n+](COCCCOC[n+]2ccc(N(C)C)cc2)cc1.O=S(=O)([N-]S(=O)(=O)C(F)(F)F)C(F)(F)F.O=S(=O)([N-]S(=O)(=O)C(F)(F)F)C(F)(F)F | 0.29
CCCCCCCCCC [decane] + N#C[N-]C#N.N#C[N-]C#N.c1ccc(Cn2cc[n+](COCCCOC[n+]3ccn(Cc4ccccc4)c3)c2)cc1 | 420
c1ccsc1 [thiophene] + CN(C)c1cc[n+](COCCCOC[n+]2ccc(N(C)C)cc2)cc1.O=S(=O)([N-]S(=O)(=O)C(F)(F)F)C(F)(F)F.O=S(=O)([N-]S(=O)(=O)C(F)(F)F)C(F)(F)F | 0.55
Cc1ccccc1 [toluene] + CCCOC[n+]1ccc(N(C)C)cc1.O=S(=O)([N-]S(=O)(=O)C(F)(F)F)C(F)(F)F | 0.99
CC#N [acetonitrile] + CCCOC[n+]1ccc(N(C)C)cc1.O=S(=O)([N-]S(=O)(=O)C(F)(F)F)C(F)(F)F | 0.51
CCCCCCCCCCC [undecane] + CCCOC[n+]1ccn(C)c1.N#C[N-]C#N | 556
C1COCCO1 [1,4-dioxane] + Cn1cc[n+](COCCCOC[n+]2ccn(C)c2)c1.N#C[N-]C#N.N#C[N-]C#N | 1.09
CC#N [acetonitrile] + CCCOC[n+]1ccn(C)c1.O=S(=O)([N-]S(=O)(=O)C(F)(F)F)C(F)(F)F | 0.46
c1ccncc1 [pyridine] + Cn1cc[n+](COCCCOC[n+]2ccn(C)c2)c1.N#C[N-]C#N.N#C[N-]C#N | 1
C=CCCCC [hex-1-ene] + CCCCCCCCn1cc[n+](COCCCOC[n+]2ccn(CCCCCCCC)c2C)c1C.N#C[N-]C#N.N#C[N-]C#N | 4.93
c1ccccc1 [benzene] + CCCOC[n+]1ccn(C)c1.N#C[N-]C#N | 2.25
c1ccccc1 [benzene] + CCCOC[n+]1ccc(N(C)C)cc1.O=S(=O)([N-]S(=O)(=O)C(F)(F)F)C(F)(F)F | 0.74
Cc1cccc(C)c1 [1,3-dimethylbenzene] + N#C[N-]C#N.N#C[N-]C#N.c1ccc(Cn2cc[n+](COCCCOC[n+]3ccn(Cc4ccccc4)c3)c2)cc1 | 8.85
CCCC(C)=O [pentan-2-one] + CCCCCCCCn1cc[n+](COCCC)c1C.N#C[N-]C#N | 0.95
Cc1cccc(C)c1 [1,3-dimethylbenzene] + CCCOC[n+]1ccn(Cc2ccccc2)c1.F[B-](F)(F)F | 5.41
ClC(Cl)Cl [trichloromethane] + CCCOC[n+]1ccn(C)c1.N#C[N-]C#N | 0.8
C[N+](=O)[O-] [nitromethane] + CCCCCCCCn1cc[n+](COCCC)c1C.N#C[N-]C#N | 0.68
c1ccsc1 [thiophene] + CCCOC[n+]1ccn(Cc2ccccc2)c1.F[B-](F)(F)F | 1.33
ClC(Cl)(Cl)Cl [tetrachloromethane] + CCCOC[n+]1ccn(Cc2ccccc2)c1.O=S(=O)([N-]S(=O)(=O)C(F)(F)F)C(F)(F)F | 1.87
CCCCO [butan-1-ol] + CCCOC[n+]1ccn(Cc2ccccc2)c1.F[B-](F)(F)F | 3
C=CCCCC [hex-1-ene] + CCCOC[n+]1ccn(C)c1.N#C[N-]C#N | 28
CCC(C)CC [3-methylpentane] + CCCCCCCCn1cc[n+](COCCC)c1C.O=S(=O)([N-]S(=O)(=O)C(F)(F)F)C(F)(F)F | 3.57
CC#N [acetonitrile] + CCCCCCCCn1cc[n+](COCCC)c1C.O=S(=O)([N-]S(=O)(=O)C(F)(F)F)C(F)(F)F | 0.48
C1COCCO1 [1,4-dioxane] + Cn1cc[n+](COCCCOC[n+]2ccn(C)c2)c1.O=S(=O)([N-]S(=O)(=O)C(F)(F)F)C(F)(F)F.O=S(=O)([N-]S(=O)(=O)C(F)(F)F)C(F)(F)F | 0.37
CCCCCCCCC [nonane] + CCCOC[n+]1ccn(C)c1.N#C[N-]C#N | 263

====

# measurement_notes: activity coefficient (dimensionless); of the first substance listed, at infinite dilution; xn = mol fraction of the nth substance listed
# applied_conditions: 323.15 K; Liquid; Chromatography; x1 = 0
Catalogue of activity coefficient readings, one per entry.
metric_name: activity coefficient

compound | metric_name | experimental_value
Cc1ccccc1 [toluene] + CCCOC[n+]1ccn(C)c1.O=S(=O)([N-]S(=O)(=O)C(F)(F)F)C(F)(F)F | activity coefficient | 1.7
CC(C)OC(C)C [diisopropyl ether] + CCCOC[n+]1ccn(Cc2ccccc2)c1.O=S(=O)([N-]S(=O)(=O)C(F)(F)F)C(F)(F)F | activity coefficient | 3
CC#N [acetonitrile] + CCCCCCCCn1cc[n+](COCCCOC[n+]2ccn(CCCCCCCC)c2C)c1C.O=S(=O)([N-]S(=O)(=O)C(F)(F)F)C(F)(F)F.O=S(=O)([N-]S(=O)(=O)C(F)(F)F)C(F)(F)F | activity coefficient | 0.26
CCCCCCCC [octane] + CCCCCCCCn1cc[n+](COCCC)c1C.O=S(=O)([N-]S(=O)(=O)C(F)(F)F)C(F)(F)F | activity coefficient | 5.76
CO [methanol] + CCCCCCCCn1cc[n+](COCCCOC[n+]2ccn(CCCCCCCC)c2C)c1C.O=S(=O)([N-]S(=O)(=O)C(F)(F)F)C(F)(F)F.O=S(=O)([N-]S(=O)(=O)C(F)(F)F)C(F)(F)F | activity coefficient | 0.57
CCCCCCCCCCC [undecane] + CCCOC[n+]1ccn(Cc2ccccc2)c1.O=S(=O)([N-]S(=O)(=O)C(F)(F)F)C(F)(F)F | activity coefficient | 41.6

====

Catalogue of activity coefficient readings, one per entry.
# measurement_notes: activity coefficient (dimensionless); of the first substance listed, at infinite dilution; xn = mol fraction of the nth substance listed
# applied_conditions: 343.15 K; Liquid; Chromatography; x1 = 0

molecule | activity coefficient
CC1CCCC1 [methylcyclopentane] + CCCCCCCCn1cc[n+](COCCCOC[n+]2ccn(CCCCCCCC)c2C)c1C.O=S(=O)([N-]S(=O)(=O)C(F)(F)F)C(F)(F)F.O=S(=O)([N-]S(=O)(=O)C(F)(F)F)C(F)(F)F | 2.17
CC(C)CO [2-methyl-1-propanol] + CCCOC[n+]1ccn(C)c1.O=S(=O)([N-]S(=O)(=O)C(F)(F)F)C(F)(F)F | 1.76
CCc1ccccc1 [ethylbenzene] + CCCCCCCCn1cc[n+](COCCCOC[n+]2ccn(CCCCCCCC)c2C)c1C.N#C[N-]C#N.N#C[N-]C#N | 1.36

====

# measurement_notes: activity coefficient (dimensionless); of the first substance listed, at infinite dilution; xn = mol fraction of the nth substance listed
# applied_conditions: 333.15 K; Liquid; Chromatography; x1 = 0
Catalogue of activity coefficient readings, one per entry.

compound | activity coefficient
C=CCCCC [hex-1-ene] + CN(C)c1cc[n+](COCCCOC[n+]2ccc(N(C)C)cc2)cc1.O=S(=O)([N-]S(=O)(=O)C(F)(F)F)C(F)(F)F.O=S(=O)([N-]S(=O)(=O)C(F)(F)F)C(F)(F)F | 8.7
CCCO [propan-1-ol] + CCCCCCCCn1cc[n+](COCCC)c1C.O=S(=O)([N-]S(=O)(=O)C(F)(F)F)C(F)(F)F | 1.06
C#CCCCC [1-hexyne] + CCCOC[n+]1ccn(C)c1.N#C[N-]C#N | 7.6
CCCO [propan-1-ol] + CCCOC[n+]1ccn(C)c1.O=S(=O)([N-]S(=O)(=O)C(F)(F)F)C(F)(F)F | 1.66
CCCCCC [hexane] + Cn1cc[n+](COCCCOC[n+]2ccn(C)c2)c1.O=S(=O)([N-]S(=O)(=O)C(F)(F)F)C(F)(F)F.O=S(=O)([N-]S(=O)(=O)C(F)(F)F)C(F)(F)F | 31
C#CCCCCC [1-heptyne] + N#C[N-]C#N.N#C[N-]C#N.c1ccc(Cn2cc[n+](COCCCOC[n+]3ccn(Cc4ccccc4)c3)c2)cc1 | 17.2
CC1CCCC1 [methylcyclopentane] + CCCCCCCCn1cc[n+](COCCCOC[n+]2ccn(CCCCCCCC)c2C)c1C.N#C[N-]C#N.N#C[N-]C#N | 4.7
CC(C)CO [2-methyl-1-propanol] + CCCCCCCCn1cc[n+](COCCCOC[n+]2ccn(CCCCCCCC)c2C)c1C.N#C[N-]C#N.N#C[N-]C#N | 0.36
ClCCl [dichloromethane] + CCCOC[n+]1ccc(N(C)C)cc1.O=S(=O)([N-]S(=O)(=O)C(F)(F)F)C(F)(F)F | 0.62
C1CCCCCC1 [cycloheptane] + CCCCCCCCn1cc[n+](COCCC)c1C.O=S(=O)([N-]S(=O)(=O)C(F)(F)F)C(F)(F)F | 8.72
ClC(Cl)Cl [trichloromethane] + CCCCCCCCn1cc[n+](COCCCOC[n+]2ccn(CCCCCCCC)c2C)c1C.N#C[N-]C#N.N#C[N-]C#N | 0.26
CO [methanol] + CCCCCCCCn1cc[n+](COCCCOC[n+]2ccn(CCCCCCCC)c2C)c1C.N#C[N-]C#N.N#C[N-]C#N | 0.2
C=CCCCC [hex-1-ene] + CCCOC[n+]1ccn(Cc2ccccc2)c1.O=S(=O)([N-]S(=O)(=O)C(F)(F)F)C(F)(F)F | 4.32
CCCO [propan-1-ol] + CCCOC[n+]1ccn(C)c1.F[B-](F)(F)F | 2.79
